- Procedure Summary: Solubility measurement of Form I in solvent systems (HPLC)
- Assay type: physicochemical
- Condition Parameters: 50 °C, organic solvent or mixture, thermodynamic from solid; solvent 1-Propanol; stirred 24 h; HPLC; read-out: Solubility at 50° C.
Quantity Measured: solubility at 24 h (µg/mL)
Express your answer in µg/mL, writing the number without its unit.

Endpoint output: solubility at 24 h of CCN1C(=O)N(c2c(F)c(OC)cc(OC)c2F)Cc2cnc3[nH]c(CN4CCOCC4)cc3c21 [Form I] . Value?
2500

---

- Procedure Summary: Solubility measurement of Form I in solvent systems (HPLC)
- Assay type: physicochemical
- Condition Parameters: 25 °C, organic solvent or mixture, thermodynamic from solid; solvent MeCN; stirred 24 h; HPLC; read-out: Solubility at 25° C.
Quantity Measured: solubility at 24 h (µg/mL)
Give just the numeric value; µg/mL need not be written.

Which solubility at 24 h is reported for this compound? CCN1C(=O)N(c2c(F)c(OC)cc(OC)c2F)Cc2cnc3[nH]c(CN4CCOCC4)cc3c21 [Form I]
5390

---

- Procedure Summary: Solubility measurement of Form I in solvent systems (HPLC)
- Assay type: physicochemical
- Condition Parameters: 25 °C, organic solvent or mixture, thermodynamic from solid; solvent IPAc; stirred 24 h; HPLC; read-out: Solubility at 25° C.
Quantity Measured: solubility at 24 h (µg/mL)
Please give a number only; it is taken to be in µg/mL.

Need solubility at 24 h of CCN1C(=O)N(c2c(F)c(OC)cc(OC)c2F)Cc2cnc3[nH]c(CN4CCOCC4)cc3c21 [Form I] , thanks.
880

---

- Procedure Summary: Solubility measurement of Form I in solvent systems (HPLC)
- Format: physicochemical
- Condition Parameters: 25 °C, organic solvent or mixture, thermodynamic from solid; solvent Acetone; stirred 24 h; HPLC; read-out: Solubility at 25° C.
Quantity Measured: solubility at 24 h (µg/mL)
The answer is to be given in µg/mL; state only the numeric part.

Which solubility at 24 h reading was recorded for the molecule CCN1C(=O)N(c2c(F)c(OC)cc(OC)c2F)Cc2cnc3[nH]c(CN4CCOCC4)cc3c21 [Form VIII] ?
2680

---

- Procedure Summary: Solubility measurement of Form I in solvent systems (HPLC)
- Assay type: physicochemical
- Condition Parameters: 25 °C, organic solvent or mixture, thermodynamic from solid; solvent Ethyl formate; stirred 24 h; HPLC; read-out: Solubility at 25° C.
Quantity Measured: solubility at 24 h
Units required after the number.

What value of measured solubility at 24 h is listed for CCN1C(=O)N(c2c(F)c(OC)cc(OC)c2F)Cc2cnc3[nH]c(CN4CCOCC4)cc3c21 [Form XI] ?
4160 µg/mL

---

- Procedure Summary: Solubility measurement of Form I in solvent systems (HPLC)
- Assay type: physicochemical
- Condition Parameters: 25 °C, organic solvent or mixture, thermodynamic from solid; solvent DMSO; stirred 24 h; HPLC; read-out: Solubility at 25° C.
Quantity Measured: solubility at 24 h

Given the molecule CCN1C(=O)N(c2c(F)c(OC)cc(OC)c2F)Cc2cnc3[nH]c(CN4CCOCC4)cc3c21 [Form I] , what is its reported solubility at 24 h?
> 50 mg/mL

---

- Procedure Summary: Solubility measurement of Form I in solvent systems (HPLC)
- Type: physicochemical
- Condition Parameters: 25 °C, organic solvent or mixture, thermodynamic from solid; solvent Chloroform; stirred 24 h; HPLC; read-out: Solubility at 25° C.
Quantity Measured: solubility at 24 h

Given the entry CCN1C(=O)N(c2c(F)c(OC)cc(OC)c2F)Cc2cnc3[nH]c(CN4CCOCC4)cc3c21 [Form I] , report its measured solubility at 24 h.
> 50 mg/mL

---

- Procedure Summary: Solubility measurement of Form I in solvent systems (HPLC)
- Format: physicochemical
- Condition Parameters: 25 °C, organic solvent or mixture, thermodynamic from solid; solvent DMF; stirred 24 h; HPLC; read-out: Solubility at 25° C.
Quantity Measured: solubility at 24 h (mg/mL)
The answer is to be given in mg/mL; state only the numeric part.

Look up solubility at 24 h: CCN1C(=O)N(c2c(F)c(OC)cc(OC)c2F)Cc2cnc3[nH]c(CN4CCOCC4)cc3c21 [Form I]
42

---

- Procedure Summary: Solubility measurement of Form I in solvent systems (HPLC)
- Assay type: physicochemical
- Condition Parameters: 25 °C, organic solvent or mixture, thermodynamic from solid; solvent IPA; stirred 24 h; HPLC; read-out: Solubility at 25° C.
Quantity Measured: solubility at 24 h (µg/mL)
Your answer is read as µg/mL, so omit the unit and give the number.

Give the measured solubility at 24 h of CCN1C(=O)N(c2c(F)c(OC)cc(OC)c2F)Cc2cnc3[nH]c(CN4CCOCC4)cc3c21 [Form I] .
560

---

- Procedure Summary: Solubility measurement of Form I in solvent systems (HPLC)
- Format: physicochemical
- Condition Parameters: 50 °C, organic solvent or mixture, thermodynamic from solid; solvent Isobutyl acetate; stirred 24 h; HPLC; read-out: Solubility at 50° C.
Quantity Measured: solubility at 24 h (µg/mL)
Give just the number in µg/mL; leave the unit off.

Quick check: solubility at 24 h of CCN1C(=O)N(c2c(F)c(OC)cc(OC)c2F)Cc2cnc3[nH]c(CN4CCOCC4)cc3c21 [Form I] ?
580

---

- Procedure Summary: Solubility measurement of Form I in solvent systems (HPLC)
- Type: physicochemical
- Condition Parameters: 50 °C, organic solvent or mixture, thermodynamic from solid; solvent THF; stirred 24 h; HPLC; read-out: Solubility at 50° C.
Quantity Measured: solubility at 24 h (mg/mL)
// return numeric value only (unit: mg/mL, not printed)

GET /values?readout=solubility at 24 h&item= CCN1C(=O)N(c2c(F)c(OC)cc(OC)c2F)Cc2cnc3[nH]c(CN4CCOCC4)cc3c21 [Form XIII]
10

---

- Procedure Summary: Solubility measurement of Form I in solvent systems (HPLC)
- Format: physicochemical
- Condition Parameters: 50 °C, organic solvent or mixture, thermodynamic from solid; solvent Chloroform; stirred 24 h; HPLC; read-out: Solubility at 50° C.
Quantity Measured: solubility at 24 h

Returns the measured solubility at 24 h for the input compound. Input: CCN1C(=O)N(c2c(F)c(OC)cc(OC)c2F)Cc2cnc3[nH]c(CN4CCOCC4)cc3c21 [Form I]
> 50 mg/mL

---

- Procedure Summary: Solubility measurement of Form I in solvent systems (HPLC)
- Type: physicochemical
- Condition Parameters: 50 °C, organic solvent or mixture, thermodynamic from solid; solvent DCM/MeOH (9/1); stirred 24 h; HPLC; read-out: Solubility at 50° C.
Quantity Measured: solubility at 24 h

Return reported solubility at 24 h; argument: CCN1C(=O)N(c2c(F)c(OC)cc(OC)c2F)Cc2cnc3[nH]c(CN4CCOCC4)cc3c21 [Form I]
> 50 mg/mL

---

- Procedure Summary: Solubility measurement of Form I in solvent systems (HPLC)
- Type: physicochemical
- Condition Parameters: 50 °C, organic solvent or mixture, thermodynamic from solid; solvent Methanol; stirred 24 h; HPLC; read-out: Solubility at 50° C.
Quantity Measured: solubility at 24 h (µg/mL)
Give your result in µg/mL as a bare value.

May I ask what solubility at 24 h has been recorded for CCN1C(=O)N(c2c(F)c(OC)cc(OC)c2F)Cc2cnc3[nH]c(CN4CCOCC4)cc3c21 [Form I] ?
2050

---

- Procedure Summary: Solubility measurement of Form I in solvent systems (HPLC)
- Assay type: physicochemical
- Condition Parameters: 25 °C, organic solvent or mixture, thermodynamic from solid; solvent n-BuOH; stirred 24 h; HPLC; read-out: Solubility at 25° C.
Quantity Measured: solubility at 24 h

Request the reported solubility at 24 h associated with CCN1C(=O)N(c2c(F)c(OC)cc(OC)c2F)Cc2cnc3[nH]c(CN4CCOCC4)cc3c21 [Form I]
820 µg/mL

---

- Procedure Summary: Solubility measurement of Form I in solvent systems (HPLC)
- Type: physicochemical
- Condition Parameters: 25 °C, organic solvent or mixture, thermodynamic from solid; solvent 2-Methoxyethanol; stirred 24 h; HPLC; read-out: Solubility at 25° C.
Quantity Measured: solubility at 24 h (mg/mL)
Express it in mg/mL; write the number only.

Entry under review: CCN1C(=O)N(c2c(F)c(OC)cc(OC)c2F)Cc2cnc3[nH]c(CN4CCOCC4)cc3c21 [Form I] . Reported solubility at 24 h?
15.3

---

- Procedure Summary: Solubility measurement of Form I in solvent systems (HPLC)
- Assay type: physicochemical
- Condition Parameters: 25 °C, organic solvent or mixture, thermodynamic from solid; solvent Toluene; stirred 24 h; HPLC; read-out: Solubility at 25° C.
Quantity Measured: solubility at 24 h (µg/mL)
Please reply with the bare figure in µg/mL and do not write the unit itself.

Name the reported solubility at 24 h value associated with the molecule CCN1C(=O)N(c2c(F)c(OC)cc(OC)c2F)Cc2cnc3[nH]c(CN4CCOCC4)cc3c21 [Form I]
450
